Exercise: state measured inhibition at 5 µM for each of the compounds provided.
Molecular target: CDK5 (Homo sapiens)
Construct: purchased Life Technologies (Invitrogen SelectScreen); Dyrk1A, Dyrk2 and CK2α in-house or gifts
Sequence (Q00535 whole entry): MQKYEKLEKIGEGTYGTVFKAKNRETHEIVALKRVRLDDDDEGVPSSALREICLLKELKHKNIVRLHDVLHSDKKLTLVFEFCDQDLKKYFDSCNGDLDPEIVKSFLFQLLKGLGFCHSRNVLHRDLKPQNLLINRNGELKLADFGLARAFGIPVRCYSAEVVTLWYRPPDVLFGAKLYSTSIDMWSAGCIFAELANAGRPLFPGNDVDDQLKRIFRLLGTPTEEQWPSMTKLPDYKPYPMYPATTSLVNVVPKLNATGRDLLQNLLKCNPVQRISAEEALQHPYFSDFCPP
Sequence (Q15078 whole entry partner): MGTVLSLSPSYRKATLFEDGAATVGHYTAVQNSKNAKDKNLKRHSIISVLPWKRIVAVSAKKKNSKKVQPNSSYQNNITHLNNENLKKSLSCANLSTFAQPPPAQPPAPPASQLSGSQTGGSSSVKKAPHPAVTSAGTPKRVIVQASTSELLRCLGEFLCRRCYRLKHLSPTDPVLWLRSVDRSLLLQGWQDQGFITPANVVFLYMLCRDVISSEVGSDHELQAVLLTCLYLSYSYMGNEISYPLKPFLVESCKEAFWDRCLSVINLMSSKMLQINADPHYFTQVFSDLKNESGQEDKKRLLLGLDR
Test: Selectivity panel CDK5
Assay type: biochemical
Conditions: 5 µM inhibitor
Give just the number in %; leave the unit off.

Reported inhibition at 5 µM for c1cncc(-c2csc(-c3cncnc3)c2)c1 [Compound 41] was 14

Summary for this compound, c1cncc(-c2csc(-c3cncs3)c2)c1 [Compound 48] : inhibition at 5 µM is 44

// field: inhibition at 5 µM; key: c1cncc(-c2cc(-c3cncs3)cs2)c1 [Compound 29] ; value = 39

Entry under test: Cn1cc(-c2csc(-c3cccnc3)c2)cn1 [Compound 30] . Its inhibition at 5 µM was 33

Query c1cncc(-c2csc(-c3cnco3)c2)c1 [Compound 33] yields inhibition at 5 µM of 23
